# Test system: TK-10 renal
# protocol details: NCI-60 one-dose screen, 48 h
# experimental parameters: 10 µM unless noted
This is part of a sample that, as a whole, favours compounds with a hit. Of some 83,000 tested, about 20% had one in any assay. Calls of active or inactive are those of the source. Rule for the calls: active = growth percent below 10; inactive = the rest.
Pick from active, inactive when you respond.

{"columns": ["compound", "label class"],
 "data": [
  ["C[C@@H]1CC2C3CCC4=CC(=O)C=C[C@]4(C)[C@@]3(Cl)[C@@H](O)C[C@]2(C)[C@@]1(OC(=O)c1ccco1)C(=O)CCl (some centres undefined)", "inactive"],
  ["CNCCCn1c2c(c3ccc(Cl)cc3c1=O)C(=O)c1cc(OC)cnc1-2", "inactive"],
  ["COc1ccc(NC(=O)c2sc3c(=O)[nH]c(C(F)(F)F)nc3c2C)cc1", "inactive"],
  ["COc1cccc(-c2cc(-c3cccs3)c(C#N)c(=O)[nH]2)c1", "inactive"],
  ["CC1=C(/C=C/C(C)=C/C=C(C(=O)O)\\C(C)=C\\C(=O)O)C(C)(C)CCC1", "inactive"],
  ["CCN(CC)Cc1cc(Nc2ccnc3ccc(OC)cc23)ccc1O", "inactive"]
]}

Req: Which result was noted for this compound in the test: Cc1ccc(C(CN(C)C)C(=O)c2ccccc2)cc1 (centres undefined)
Resp: inactive

Req: Which result was noted for this compound in the test: CCN1C(=O)N(CC)C2C1N=C(SC)N2/N=C/C=C/c1ccccc1OC (centres undefined)
Resp: inactive

Req: Which result was noted for this compound in the test: "CCSc1cnnc2ccccc12"
Resp: inactive

Req: Which result was noted for this compound in the test: CC(=O)N1N=C(C2C(=O)N(C)C(=O)N(C)C2=O)CC1c1ccccc1C(=O)O (centres undefined)
Resp: inactive

Req: Which result was noted for this compound in the test: CC(C)[C@@]12C[C@@H](OC(=O)C3CO3)[C@@](C)(O1)[C@@H]1CC[C@@H](C)[C@H]1[C@@H]2OC(=O)/C=C/c1ccccc1 (some centres undefined)
Resp: inactive

Req: Which result was noted for this compound in the test: "Cc1cc([N+](=O)[O-])c(C)cc1N"
Resp: inactive

Req: Which result was noted for this compound in the test: "Cc1ccc(NC(=O)c2cc(NCc3cc(O)ccc3O)ccc2O)cc1"
Resp: inactive

Req: Which result was noted for this compound in the test: "COc1cc(NC(=O)CSc2nc3ccc(Cl)cc3c(=O)n2Cc2ccccc2)cc(OC)c1OC"
Resp: inactive

Req: Which result was noted for this compound in the test: "Nc1c(C(=O)Nc2cccc(Cl)c2)sc2nc3c(cc12)C(=O)CCC3"
Resp: inactive

Req: Which result was noted for this compound in the test: "O=C(Nc1ccc(-n2ccc3c(NC(=O)c4ccccc4)nccc32)cc1)c1ccc(N2CCOCC2)c(C(F)(F)F)c1"
Resp: inactive

Req: Which result was noted for this compound in the test: "CCN(CC)c1cc(C)c(Cc2c(OC)ccc3ccccc23)cc1C"
Resp: inactive

Req: Which result was noted for this compound in the test: CNC(=O)OC1C(O[C@H]2C[C@H]3[C@@H]4CC=C5C[C@@H](O)CC[C@]5(C)[C@H]4CC[C@]3(C)[C@H]2[C@H](C)C(=O)CCC(C)C)OCC(O)C1OC1OCC(O)C(O)C1OC(=O)c1ccc(OC)cc1 (some centres undefined)
Resp: inactive

Req: Which result was noted for this compound in the test: "CC(C)(C)c1cc(C[P+](c2ccccc2)(c2ccccc2)c2ccccc2)cc(C(C)(C)C)c1O"
Resp: active
